molecular target: rat NaPi-2b (Rattus norvegicus); experiment: Sodium-dependent phosphate uptake of Xenopus oocytes which expressed NaPi-2b (32P); conditions: Xenopus oocytes expressing rat NaPi-2b, 32P radioactive phosphorus; read-out: IC50 (phosphate uptake inhibitory activity)
Sequence (Q9JJ09 whole entry): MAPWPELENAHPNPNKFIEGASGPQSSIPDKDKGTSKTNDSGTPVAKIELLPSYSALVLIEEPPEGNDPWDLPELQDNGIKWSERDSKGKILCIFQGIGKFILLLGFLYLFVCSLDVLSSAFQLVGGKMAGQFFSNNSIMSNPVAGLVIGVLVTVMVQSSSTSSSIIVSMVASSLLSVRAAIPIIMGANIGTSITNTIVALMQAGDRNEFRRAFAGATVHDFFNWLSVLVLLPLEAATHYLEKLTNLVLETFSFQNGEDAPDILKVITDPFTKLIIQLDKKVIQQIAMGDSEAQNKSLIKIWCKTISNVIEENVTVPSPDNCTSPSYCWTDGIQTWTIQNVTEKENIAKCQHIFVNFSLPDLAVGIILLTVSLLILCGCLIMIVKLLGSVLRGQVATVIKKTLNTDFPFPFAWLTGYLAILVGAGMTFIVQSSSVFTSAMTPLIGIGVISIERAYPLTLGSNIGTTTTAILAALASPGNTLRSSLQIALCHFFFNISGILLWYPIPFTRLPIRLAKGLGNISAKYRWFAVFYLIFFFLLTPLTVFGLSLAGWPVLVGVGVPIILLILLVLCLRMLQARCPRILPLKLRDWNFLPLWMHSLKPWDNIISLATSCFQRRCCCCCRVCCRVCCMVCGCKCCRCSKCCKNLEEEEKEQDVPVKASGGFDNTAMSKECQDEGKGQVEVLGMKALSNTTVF
Counter-ions that a name gives are not always drawn.
Mark each entry true (1) if its IC50 sits below 2 µM, and false (0) for all others.

Quick check: IC50 of COc1ccc(/C=N/NC(=O)c2c(NC(=O)c3cccc(CN(CC(C)O)CC(C)O)c3)sc3ccccc23)cc1 (stereo not drawn) under 2 µM? false (0)

Decide: IC50 of COc1ccc(C(=O)Nc2ccc(Br)cc2C(=O)N/N=C/c2cccc(Cl)c2)cc1OC strictly below 2 µM? true (1)

Quick check: IC50 of CCN(CC)CCN(C)Cc1cccc(C(=O)Nc2sc3c(c2C(=O)N/N=C/c2ccc(C)cc2)CCCC3)c1 under 2 µM? true (1)

Is IC50 of CCN(CC)CCSCc1cccc(C(=O)Nc2ccc(N3CCCCC3)cc2C(=O)N/N=C/c2ccc(F)cc2)c1 strictly below 2 µM? true (1)

Problem: For the compound CCN(CCO)Cc1cccc(C(=O)Nc2ccc(Cl)cc2C(=O)N/N=C/c2cccc(F)c2)c1 , is IC50 under 2 µM? true (1)

Dear reviewer, please state whether COc1ccc(C(=O)Nc2ccc(C)cc2C(=O)N/N=C/c2ccc(F)cc2)cc1OC has IC50 strictly beneath 2 µM. false (0)

Criterion: IC50 strictly below 2 µM. Is it met by COc1ccc(C(=O)Nc2ccccc2C(=O)N/N=C/c2cc(OC)c(OC)c(OC)c2)cc1OC ? false (0)

Please let me know if Cc1ccc(/C=N/NC(=O)c2cc(Br)ccc2NC(=O)c2ccc(CN3CCN(CC(=O)N4CCOCC4)CC3)cc2)cc1 shows IC50 below 2 µM. false (0)

Consider the compound Cc1cccc(/C=N/NC(=O)c2cc(Br)ccc2NC(=O)c2cccc(CSc3nc[nH]n3)c2)c1 . Is its IC50 strictly less than 2 µM? false (0)

Criterion: IC50 strictly below 2 µM. Is it met by O=C(Nc1ccccc1C(=O)N/N=C/c1cccc(F)c1)c1ccc(F)cc1 ? false (0)

Field: below-cutoff. Rule: recorded IC50 strictly less than 2 µM. Subject: CCN(CCO)Cc1cccc(C(=O)Nc2ccc(Cl)cc2C(=O)N/N=C/c2cccc(C)c2)c1 true (1)

Please check: IC50 for Cc1ccc(/C=N/NC(=O)c2ccccc2NC(=O)c2ccc(F)cc2)cc1C , strictly under 2 µM or not? false (0)

Determine if Cc1cccc(/C=N/NC(=O)c2ccccc2NC(=O)c2ccc(F)cc2)c1 shows IC50 strictly lower than 2 µM. false (0)

Record CN(C)CCn1nnnc1SCc1cccc(C(=O)Nc2ccc(Cl)cc2C(=O)N/N=C/c2ccc(F)cc2)c1 : is its IC50 strictly below 2 µM? false (0)

Find out if reported IC50 for O=C(Nc1ccc(Cl)cc1C(=O)N/N=C/c1ccc(F)cc1)c1cccc(CSc2nc[nH]n2)c1 is less than 2 µM true (1)

Criterion: IC50 strictly below 2 µM. Is it met by Cc1csc(NC(=O)c2cccc(CN(CCO)CCO)c2)c1C(=O)N/N=C/c1cccc(F)c1 ? true (1)

IC50 under 2 µM? Item: COc1cc(OC)cc(C(=O)Nc2ccc(Br)cc2C(=O)NN=Cc2cccc(C)c2)c1 false (0)

Dear colleague, could you confirm whether IC50 of CN(CCO)Cc1cccc(C(=O)Nc2ccc(Cl)cc2C(=O)N/N=C/c2ccc(O)cc2)c1 falls below 2 µM? Thanks. false (0)

Regarding COc1ccc(/C=N/NC(=O)c2c(C)csc2NC(=O)c2cccc(CN(CC(C)O)CC(C)O)c2)cc1 (stereo not drawn) [Compound 852, hydrochloride] , kindly confirm whether its IC50 is beneath 2 µM. true (1)

A record lists COc1cc(OC)cc(C(=O)Nc2ccc(Br)cc2C(=O)N/N=C/c2cccc(Cl)c2)c1 . Is its IC50 below 2 µM? false (0)

Determine if O=C(Nc1ccc(Cl)cc1C(=O)N/N=C/c1ccc(Cl)c(C(F)(F)F)c1)c1cccc(CN2CCC(N3CCCCC3)CC2)c1 shows IC50 strictly lower than 2 µM. true (1)

Please let me know if O=C(Nc1ccc(N2CCCC2)cc1C(=O)N/N=C/c1ccc(Cl)c(C(F)(F)F)c1)c1cccc(CSCCO)c1 shows IC50 below 2 µM. true (1)

Please determine if O=C(Nc1ccc(N2CCCCC2)cc1C(=O)N/N=C/c1ccc(F)cc1)c1cccc(CSCCO)c1 is below 2 µM in terms of IC50. true (1)

Consider COc1ccc(C(=O)Nc2ccc(C)cc2C(=O)N/N=C/c2ccc(C)c(C)c2)cc1OC . Does its IC50 lie strictly below 2 µM? true (1)

For this compound, is IC50 lower than 2 µM? CCOc1ccc(C(=O)Nc2ccc(Br)cc2C(=O)N/N=C/c2ccc(C)cc2)cc1 false (0)

Confirm or reject: IC50 of Cc1ccc(/C=N/NC(=O)c2ccccc2NC(=O)c2cccnc2)cc1C [Compound 165, hydrochloride] lies strictly below 2 µM false (0)

Dear reviewer, please state whether O=C(Nc1ccccc1C(=O)N/N=C/c1cccc(F)c1)c1cccc(F)c1 has IC50 strictly beneath 2 µM. false (0)
